Field: growth. Provide a value for each of the molecules that follow.
# Test system: E. coli TESEC Mtb Alr
# protocol-details: growth (OD600 after 10 h); higher = more growth (less inhibition)
# experimental-parameters: arabinose 1000 nM; compound 0.1 mM; raw OD600 reference: median of DMSO wells 0.294, cell-free background 0.041
Structures can show the parent of a compound that is named as a salt.
Keep it simple and answer with nothing but the number.

Fill in the recorded growth for this molecule, with E. coli TESEC Mtb Alr as test system: COP(=O)(OC)C(O)C(Cl)(Cl)Cl (stereo not drawn)
0.293

Fill in the recorded growth for this molecule, with E. coli TESEC Mtb Alr as test system: S=C(NC1CCCCC1)N1CCC(c2cnc[nH]2)CC1 [Thioperamide maleate]
0.286

Fill in the recorded growth for this molecule, with E. coli TESEC Mtb Alr as test system: Clc1ccc(C(OCCN2CCCCC2)c2ccccc2)cc1 (stereo not drawn) [Cloperastine hydrochloride]
0.232

Fill in the recorded growth for this molecule, with E. coli TESEC Mtb Alr as test system: CO[C@]12C[C@@H](COC(=O)c3cncc(Br)c3)CN(C)[C@@H]1Cc1cn(C)c3cccc2c13
0.184

Fill in the recorded growth for this molecule, with E. coli TESEC Mtb Alr as test system: CN(C)[C@@H]1C(=O)C(C(N)=O)=C(O)[C@@]2(O)C(=O)C3=C(O)c4c(O)ccc(Cl)c4[C@@](C)(O)[C@H]3C[C@@H]12 [Chlortetracycline hydrochloride]
0.0417

Fill in the recorded growth for this molecule, with E. coli TESEC Mtb Alr as test system: CCC(=O)O[C@H]1CC[C@H]2[C@@H]3CCC4=CC(=O)CC[C@]4(C)[C@H]3CC[C@]12C [Testosterone propionate]
0.145

Fill in the recorded growth for this molecule, with E. coli TESEC Mtb Alr as test system: CC(N)C(O)c1ccccc1 (stereo not drawn) [Phenylpropanolamine hydrochloride]
0.298

Fill in the recorded growth for this molecule, with E. coli TESEC Mtb Alr as test system: C(#CCN1CCCC1)CN1CCCC1 [Tremorine dihydrochloride]
0.317

Value source: the supplement of paper PMC9262897
